# tested.system: GluN1-GluN2A (Rattus norvegicus, UniProt P35439+Q00959)
# Construct: GFP (N); expressed in transfected cells; host or cells: HEK-293T (single-channel: HEK293)
# Sequence (Q00959 23-1464, other chains not shown): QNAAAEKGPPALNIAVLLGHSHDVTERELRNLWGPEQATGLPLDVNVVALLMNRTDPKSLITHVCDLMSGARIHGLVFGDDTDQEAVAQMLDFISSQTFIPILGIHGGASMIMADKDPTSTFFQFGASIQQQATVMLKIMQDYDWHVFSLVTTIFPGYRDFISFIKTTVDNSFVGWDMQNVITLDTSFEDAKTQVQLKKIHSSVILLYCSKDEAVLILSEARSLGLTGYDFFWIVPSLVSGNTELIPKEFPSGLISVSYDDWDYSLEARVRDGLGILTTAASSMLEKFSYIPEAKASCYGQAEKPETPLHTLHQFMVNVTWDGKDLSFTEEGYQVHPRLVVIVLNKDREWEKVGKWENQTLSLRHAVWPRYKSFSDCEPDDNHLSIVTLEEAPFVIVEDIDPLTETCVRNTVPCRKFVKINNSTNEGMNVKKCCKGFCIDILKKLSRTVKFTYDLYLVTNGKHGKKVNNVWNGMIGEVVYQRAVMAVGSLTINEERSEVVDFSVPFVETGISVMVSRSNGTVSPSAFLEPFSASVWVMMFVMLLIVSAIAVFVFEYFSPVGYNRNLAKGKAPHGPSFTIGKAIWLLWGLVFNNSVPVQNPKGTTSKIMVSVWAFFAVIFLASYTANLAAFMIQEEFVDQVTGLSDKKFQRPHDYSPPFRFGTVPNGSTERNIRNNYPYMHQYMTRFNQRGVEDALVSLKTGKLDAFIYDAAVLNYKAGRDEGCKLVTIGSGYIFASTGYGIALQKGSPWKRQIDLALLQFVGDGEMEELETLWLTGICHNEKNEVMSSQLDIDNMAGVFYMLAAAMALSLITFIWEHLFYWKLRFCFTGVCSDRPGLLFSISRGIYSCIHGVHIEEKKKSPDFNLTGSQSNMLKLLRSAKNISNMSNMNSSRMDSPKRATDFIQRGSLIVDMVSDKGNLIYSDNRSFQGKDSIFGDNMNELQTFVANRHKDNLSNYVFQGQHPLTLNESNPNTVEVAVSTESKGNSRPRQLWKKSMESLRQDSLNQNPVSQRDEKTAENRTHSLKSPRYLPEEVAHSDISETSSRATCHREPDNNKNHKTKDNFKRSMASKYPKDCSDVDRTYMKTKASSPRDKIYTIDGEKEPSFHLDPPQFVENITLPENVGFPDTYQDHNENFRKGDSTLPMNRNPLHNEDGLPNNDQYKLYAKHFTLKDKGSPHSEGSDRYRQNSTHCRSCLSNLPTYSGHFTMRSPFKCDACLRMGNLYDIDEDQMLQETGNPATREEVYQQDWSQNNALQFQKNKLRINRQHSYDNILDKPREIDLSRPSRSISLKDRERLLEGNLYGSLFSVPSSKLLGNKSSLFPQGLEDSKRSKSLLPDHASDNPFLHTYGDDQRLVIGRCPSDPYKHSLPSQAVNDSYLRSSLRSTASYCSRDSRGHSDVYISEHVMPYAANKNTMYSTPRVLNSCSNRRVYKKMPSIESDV
# measurement.protocol: cell-based
No end group written: not given here.
value.type: EC50 (µM)
// return numeric value only (unit: µM, not printed)

Query string: Value lookup for EC50; key = KLGMRSELQIDNDQDAD [EAR-20]
Result string: 88.7

====

# tested.system: GluN1-GluN2B (Rattus norvegicus, UniProt P35439+Q00960)
# Construct: GFP (N); expressed in transfected cells; host or cells: HEK-293T
# Sequence (Q00960 27-1482, other chains not shown): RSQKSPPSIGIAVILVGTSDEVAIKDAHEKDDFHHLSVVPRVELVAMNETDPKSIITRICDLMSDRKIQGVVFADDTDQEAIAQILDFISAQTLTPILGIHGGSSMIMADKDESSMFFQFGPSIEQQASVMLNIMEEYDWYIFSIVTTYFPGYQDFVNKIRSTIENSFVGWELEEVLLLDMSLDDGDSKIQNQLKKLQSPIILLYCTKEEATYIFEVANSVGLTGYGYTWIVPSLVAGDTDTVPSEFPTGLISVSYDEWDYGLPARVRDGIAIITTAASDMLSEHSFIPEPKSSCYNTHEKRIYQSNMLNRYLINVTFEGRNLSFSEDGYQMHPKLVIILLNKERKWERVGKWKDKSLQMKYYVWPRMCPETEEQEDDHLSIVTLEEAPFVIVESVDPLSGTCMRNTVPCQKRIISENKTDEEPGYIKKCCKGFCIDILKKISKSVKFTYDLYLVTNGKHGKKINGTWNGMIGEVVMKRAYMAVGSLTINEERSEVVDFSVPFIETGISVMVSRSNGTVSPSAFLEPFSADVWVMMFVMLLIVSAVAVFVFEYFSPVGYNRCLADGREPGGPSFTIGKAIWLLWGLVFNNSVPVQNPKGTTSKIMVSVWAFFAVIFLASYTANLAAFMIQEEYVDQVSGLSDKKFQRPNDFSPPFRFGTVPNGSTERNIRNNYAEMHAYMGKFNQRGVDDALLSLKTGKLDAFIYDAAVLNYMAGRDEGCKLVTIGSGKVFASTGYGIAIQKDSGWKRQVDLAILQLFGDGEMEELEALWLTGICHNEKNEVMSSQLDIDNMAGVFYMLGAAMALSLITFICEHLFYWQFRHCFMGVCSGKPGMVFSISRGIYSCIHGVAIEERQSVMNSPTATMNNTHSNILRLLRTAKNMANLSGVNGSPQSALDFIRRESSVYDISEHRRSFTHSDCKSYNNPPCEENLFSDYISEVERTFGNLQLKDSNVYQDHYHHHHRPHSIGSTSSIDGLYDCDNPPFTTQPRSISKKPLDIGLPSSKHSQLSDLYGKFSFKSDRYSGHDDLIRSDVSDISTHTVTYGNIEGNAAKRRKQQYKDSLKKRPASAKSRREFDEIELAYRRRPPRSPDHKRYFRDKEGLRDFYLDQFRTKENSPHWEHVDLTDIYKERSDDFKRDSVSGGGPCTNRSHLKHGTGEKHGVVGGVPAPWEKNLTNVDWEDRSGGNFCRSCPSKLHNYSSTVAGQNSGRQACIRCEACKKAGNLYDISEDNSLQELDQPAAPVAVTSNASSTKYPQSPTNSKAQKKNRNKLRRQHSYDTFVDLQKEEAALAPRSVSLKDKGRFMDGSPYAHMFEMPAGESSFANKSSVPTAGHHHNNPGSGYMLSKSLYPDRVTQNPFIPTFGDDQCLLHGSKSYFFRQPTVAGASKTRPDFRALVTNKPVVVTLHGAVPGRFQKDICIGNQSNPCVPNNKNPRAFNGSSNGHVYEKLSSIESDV
# measurement.protocol: cell-based
No end group written: not given here.
value.type: pEC50
# pEC50: negative log10 of molar concentration; output just the value

Query string: Value lookup for pEC50; key = KLGMRSELQIDNDQDAD [EAR-20]
Result string: 4.37
